# SUBJECT_OF_TEST: hCA IX (Homo sapiens, UniProt Q16790)
# Construct: made in house
# TEST_METHOD_NOTES: stopped-flow CO2 hydrase assay, hCA IX
# Format: biochemical
# SETTINGS: hCA IX over hCA I
# Description: An Applied Photophysics stopped-flow instrument has been used for assaying the CA-catalysed CO2 hydration activity, as reported earlier. […] All hCA isoforms were recombinant proteins, being obtained in-house as reported earlier.
Quick reference: Selectivity index (SI) I/IX of the listed items.

For orientation, consider the following solved cases.
COc1ccc2cc3[n+](cc2c1OCCCCn1cc(COc2ccc4ccc(=O)oc4c2)nn1)CCc1cc2c(cc1-3)OCO2 | > 578.0
COc1ccc2cc3[n+](cc2c1OCc1cn(CCCOc2ccc4ccc(=O)oc4c2)nn1)CCc1cc2c(cc1-3)OCO2 | > 284.9
COc1ccc2cc3[n+](cc2c1OCCCCn1cc(CCOc2ccc4ccc(=O)oc4c2)nn1)CCc1cc2c(cc1-3)OCO2 | > 332.2
COc1ccc2cc3[n+](cc2c1OCc1cn(CCCCOc2ccc4ccc(=O)oc4c2)nn1)CCc1cc2c(cc1-3)OCO2 | > 392.2
COc1ccc2cc3[n+](cc2c1OCCCCCn1cc(COc2ccc4ccc(=O)oc4c2)nn1)CCc1cc2c(cc1-3)OCO2 | > 205.8

Give the reported Selectivity index (SI) I/IX for COc1ccc2cc3[n+](cc2c1OCCCn1cc(CCOc2ccc4ccc(=O)oc4c2)nn1)CCc1cc2c(cc1-3)OCO2 (system: hCA IX (Homo sapiens, UniProt Q16790)).
> 289.9
